// values below are reported ED50
- TESTED_TARGET: T1, HLA-A*0201 (human)
- T1 construct: also called HLA-A2.1; HLA A2.1
- ASSAY_DETAILS: iTopia affinity;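 note: peptide affinity for plate-bound HLA-A2 molecules (iTopia system), with ED50 derived from an eight-point serial peptide dilution series run under binding assay conditions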
ENDPOINT: ED50 (µM)

BINDER: ALFKEIFSC [cdr2 424-432 ALFKEIFSC]
ENDPOINT: ED50
OBSERVED_RESULT: 30
//
BINDER: VFAEKITSL [cdr2 176-184 VFAEKITSL]
ENDPOINT: ED50
OBSERVED_RESULT: 5
//
BINDER: ECLQTNIDH [cdr2 120-128 ECLQTNIDH]
ENDPOINT: ED50
OBSERVED_RESULT: 30
//
BINDER: ASGWELASV [cdr2 400-408 ASGWELASV]
ENDPOINT: ED50
OBSERVED_RESULT: 1
//
BINDER: KILSLTETI [cdr2 111-119 KILSLTETI]
ENDPOINT: ED50
OBSERVED_RESULT: 7
//
BINDER: LYDLRQHFV [cdr2 164-172 LYDLRQHFV]
ENDPOINT: ED50
OBSERVED_RESULT: 0.5
//
BINDER: SLLEEMFLT [cdr2 289-297 SLLEEMFLT]
ENDPOINT: ED50
OBSERVED_RESULT: 6
//
BINDER: AAAKDLTGV [cdr2 384-392 AAAKDLTGV]
ENDPOINT: ED50
OBSERVED_RESULT: 3
